test: NCI Yeast Anticancer Drug Screen. Data for the rad50 strain (AID 155);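 also: 0% = growth of vehicle-only cultures of the same strain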; conditions: S. cerevisiae rad50 strain growth inhibition; at 50.0 µM; active compounds read high
About 79,000 compounds went through this panel and 15% of them were active in at least one assay; those are over-represented in the sample as a whole.
Some compounds, each annotated with its measured growth inhibition.
The figure you give is taken to be in %; do not add the unit.

[[record]]
compound = "N#CC1(C#N)CC1(C#N)C#N"
datavalue = 7.9


# input Bench note: what growth inhibition did O=C(CCCC(=O)Nc1ccccc1)Nc1ccccc1 show?
# output -9.35

# input Bench note: what growth inhibition did NNC(=O)CNc1cccc(Br)c1 show?
# output -16.1

# input Bench note: what growth inhibition did Cc1ccc(OCC2OC(n3cnc4nc(Nc5ccc(Cl)c(Cl)c5)nc(Cl)c43)CC2Oc2ccc(C)cc2)cc1 (stereo unspecified) show?
# output 6.9

# input Bench note: what growth inhibition did Nc1nc2c(c(=O)[nH]1)CN(CCCN1CCOCC1)CN2 show?
# output -36.2

# input Bench note: what growth inhibition did CC1CN(C(C)(C)C)CO1 (stereo unspecified) show?
# output -0.3

# input Bench note: what growth inhibition did C=CCNC(=S)Nc1cccc(C(C)OC(=O)NC(C)(C)C)c1 (stereo unspecified) show?
# output 1.2

# input Bench note: what growth inhibition did C[N+](C)(C)CCCSc1nc2ccccc2[nH]1 show?
# output 9.6
